Field: pIC50. Provide a value for each of the compounds that follow.
# TESTED TARGET: CyclinE1/CDK2 (Homo sapiens, UniProt P24864)
# Construct: purchased Eurofins, discovery 14-475
# METHOD NOTES: Fluorescence Polarization (FP) competitive binding assay, Cyclin E1/Cdk2;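 further: readings taken after two-hour equilibration at room temperature in HEPES buffer with NaCl, DTT, NP-40 and BSA, IC50 fitted from eight-concentration serial dilution series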
# ASSAY CONTEXT: 10 nM Cyclin E1/Cdk2, 2 nM FAM probe; average of 2-3 independent experiments; read-out: Cyclin E FP IC50
*1 amine or outer side, *2 acyl side, *3 side chain or, on linkers, in order; H or OH if unused. Where a SMILES comes first, the peptide text is derived from it. Bridges are numbered along the chain shown (N, C = ends). [ ]: non-standard residue; d: D form. The star is where a group is joined. X6 = CN([C@@H](Cc1cc(Cl)ccc1-c1ccc(-c2cccnc2)cc1)C(=O)[*:2])[*:1]; X184 = CC(=O)N1CCC(c2ccc(F)cc2C[C@@H](C(=O)[*:2])N(C)[*:1])CC1; NMehhhLys(Me) = CN([C@@H](CCCCCCCN(C)[*:3])C(=O)[*:2])[*:1]; cBuCO(3,3-F2-1-CF3) = O=C(C1(C(F)(F)F)CC(F)(F)C1)*; Pro(trans-4-F) = O=C(O)[C@@H]1C[C@@H](F)CN1; Gly(cPr) = N[C@H](C(=O)O)C1CC1
Answers are plain numbers, as −log10 of the molar value.

A selection of reference data follows.
[[record]]
compound = "CC(=O)N1CCC(c2ccc(F)cc2C[C@H]2C(=O)N(C)CCCCCCC[C@H](N(C)C(=O)[C@@H](NC(=O)[C@@H]3C[C@@H](F)CN3C(=O)C3(C(F)(F)F)CC(F)(F)C3)C3CC3)C(=O)N[C@@H](CC(C)C)C(=O)N2C)CC1 [Example 45] ({cBuCO(3,3-F2-1-CF3)}-[Pro(trans-4-F)][Gly(cPr)][NMehhhLys(Me)]L[X184]; lactam 3-C)"
measure_name = "pIC50"
observed_result = 6.48

[[record]]
compound = "CC(C)C[C@@H]1NC(=O)[C@@H](N(C)C(=O)[C@@H](NC(=O)[C@@H]2N[C@@H](F)CC2C(=O)C2(C(F)(F)F)CC(F)(F)C2)C2CC2)CC=CCCCCN(C)C(=O)[C@H](Cc2cc(Cl)cnc2OC(C)C)N(C)C1=O (stereo partly shown) [Example 130]"
measure_name = "pIC50"
observed_result = 6.51

[[record]]
compound = "CC(C)C[C@@H]1NC(=O)[C@@H](N(C)C(=O)[C@@H](NC(=O)[C@@H]2C[C@@H](F)CN2C(=O)C2(C(F)(F)F)CC(F)(F)C2)C2CC2)CCCCCCCN(C)C(=O)[C@H](Cc2cc(Cl)ccc2-c2ccc(-c3cccnc3)cc2)N(C)C1=O [Example 375] ({cBuCO(3,3-F2-1-CF3)}-[Pro(trans-4-F)][Gly(cPr)][NMehhhLys(Me)]L[X6]; lactam 3-C)"
measure_name = "pIC50"
observed_result = 5.76


// pIC50 value for CC(C)C[C@@H]1NC(=O)[C@@H](N(C)C(=O)[C@@H](NC(=O)[C@@H]2C[C@@H](F)CN2C(=O)C2(C(F)(F)F)CCC2)C2CC2)C/C=C\CCCCN(C)C(=O)[C@H](Cc2cc(Cl)ccc2-c2cnn(C)c2)N(C)C1=O [Example 173] : 7.00
